# protocol: Half life in rat at 10 mg/kg, po or 3 mg/kg, iv
# Assay type: ADME, organism-based
# setup.conditions: in vivo
measurement.label: half-life (h)
Unit h implied. Number only.

QUERY: Consider the compound shown here: `O=C(NC1CC1)c1cn(-c2cccc(-c3ccc([C@@H]4C[C@H]4C(=O)O)c(F)c3)c2)c2ncccc2c1=O` What is its recorded half-life?
RESULT: 3.5

###

# protocol: Metabolic stability in male rat hepatocytes assessed as compound metabolism level
# Assay type: ADME, cell-based, Hepatocyte
# setup.conditions: read-out: Activity
measurement.label: metabolised (%)
Unit % implied. Number only.

QUERY: Consider the molecule shown here: `O=C(NC1CC1)c1cn(-c2cccc(-c3ccc([C@@H]4C[C@H]4C(=O)O)c(F)c3)c2)c2ncccc2c1=O` What is its recorded metabolised?
RESULT: 5

###

# Test system: Brain
# protocol: Drug level in brain of Lister rat during water maze delayed matching to position test
# setup.conditions: in vivo, read-out: Drug uptake
measurement.label: concentration
I'd appreciate it if you wrote the number followed by its unit.

Below, each entry is followed by its recorded concentration result.
{"smiles.structure": "O=C(NC1CC1)c1cn(-c2cccc(-c3ccc([C@@H]4C[C@H]4C(=O)O)c(F)c3)c2)c2ncccc2c1=O", "target.or.system": "Brain", "result": "9.2 nM"}
{"smiles.structure": "O=C(NC1CC1)c1cn(-c2cccc(C#Cc3ccc[n+]([O-])c3)c2)c2ncccc2c1=O", "target.or.system": "Brain", "result": "15 nM"}

Next compound, concentration to be filled in.
QUERY: Notebook entry, Brain assay: concentration of `Cc1noc(/C(=C/c2cccc(-c3cc(C(C)(C)S(C)(=O)=O)cc4cccnc34)c2)c2ccc(S(C)(=O)=O)cc2)n1` = ?
RESULT: 5.1 nM

###

# target.or.system: Cytochrome P450 2D6 (Homo sapiens)
# Sequence (P10635 whole entry): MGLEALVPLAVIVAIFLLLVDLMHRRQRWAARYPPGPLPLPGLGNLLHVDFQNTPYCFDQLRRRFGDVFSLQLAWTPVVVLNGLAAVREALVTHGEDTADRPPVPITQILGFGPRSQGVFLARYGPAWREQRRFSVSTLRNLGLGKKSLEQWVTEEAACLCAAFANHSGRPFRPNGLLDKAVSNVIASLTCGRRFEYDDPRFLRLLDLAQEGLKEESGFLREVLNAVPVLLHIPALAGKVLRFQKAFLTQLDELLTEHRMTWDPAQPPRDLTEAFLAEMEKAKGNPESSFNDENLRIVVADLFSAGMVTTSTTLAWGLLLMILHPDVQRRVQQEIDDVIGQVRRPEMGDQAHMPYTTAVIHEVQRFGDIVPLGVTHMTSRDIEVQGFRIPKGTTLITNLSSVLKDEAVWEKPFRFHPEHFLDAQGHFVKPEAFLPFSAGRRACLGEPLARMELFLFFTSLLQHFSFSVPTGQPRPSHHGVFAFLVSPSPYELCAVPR
measurement.label: IC50

QUERY: Notebook entry, Cytochrome P450 2D6 (Homo sapiens) assay: IC50 of `O=C(NC1CC1)c1cn(-c2cccc(-c3ccc([C@@H]4C[C@H]4C(=O)O)c(F)c3)c2)c2ncccc2c1=O` = ?
RESULT: > 100 µM

###

# protocol: Half life in Sprague-Dawley rat at 10 mg/kg, po and 5 mg/kg, iv
# Assay type: ADME, organism-based
# setup.conditions: Sprague-Dawley, in vivo
measurement.label: half-life (h)
Unit h implied. Number only.

Below, each entry is followed by its recorded half-life result.
{"compound": "CC(C)(Cc1ccc(-c2cccc(-n3cc(C(=O)NC4CC4)c(=O)c4cccnc43)c2)cc1)C(=O)O", "half-life / h": 6.1}
{"compound": "O=C(NC1CC1)c1cn(-c2cccc(-c3ccc(C4CC4c4nnn[nH]4)cc3)c2)c2ncccc2c1=O (racemic)", "half-life / h": 2.4}
{"compound": "CC(C)(CC(=O)O)c1ccc(-c2cccc(-n3cc(C(=O)NC4CC4)c(=O)c4cccnc43)c2)cc1", "half-life / h": 5.1}

Next compound, half-life to be filled in.
QUERY: Consider the compound shown here: O=C(NC1CC1)c1cn(-c2cccc(-c3ccccc3C3CC3C(=O)O)c2)c2ncccc2c1=O (racemic) What is its recorded half-life?
RESULT: 4.7

###

Below is a list of entries, each paired with its recorded IC50 value.
# protocol: Inhibition of PDE4 activity in rat whole blood assessed as inhibition of LPS-induced TNF-alpha release
# Type: tissue-based
Unit nM implied. Number only.

Below, each entry is followed by its recorded IC50 result.
{"compound": "O=C(NC1CC1)c1cn(-c2cccc(C#Cc3ccc[n+]([O-])c3)c2)c2ncccc2c1=O [MK-0873]", "IC50, nM": 64}
{"compound": "O=C(NC1CC1)c1cn(-c2cccc(-c3ccc([C@@H]4C[C@H]4C(=O)O)c(F)c3)c2)c2ncccc2c1=O", "IC50, nM": 450}

Next compound, IC50 to be filled in.
QUERY: Consider the compound shown here: `Cc1noc(/C(=C/c2cccc(-c3cc(C(C)(C)S(C)(=O)=O)cc4cccnc34)c2)c2ccc(S(C)(=O)=O)cc2)n1` What is its recorded IC50?
RESULT: 23

###

# target.or.system: CYP3A (Homo sapiens, UniProt P08684+P20815+P24462+Q9HB55)
# protocol: Inhibition of human CYP3A
# Format: ADME
measurement.label: IC50

QUERY: Consider the compound shown here: `O=C(NC1CC1)c1cn(-c2cccc(-c3ccc([C@@H]4C[C@H]4C(=O)O)c(F)c3)c2)c2ncccc2c1=O` What is its recorded IC50?
RESULT: > 100 µM

###

# Tested on: Plasma
# protocol: Drug level in plasma of Lister rat during water maze delayed matching to position test
measurement.label: concentration (nM)
Unit nM implied. Number only.

{"compound": "O=C(NC1CC1)c1cn(-c2cccc(-c3ccc([C@@H]4C[C@H]4C(=O)O)c(F)c3)c2)c2ncccc2c1=O", "unit.text": "nM", "concentration": 390}
{"compound": "Cc1noc(/C(=C/c2cccc(-c3cc(C(C)(C)S(C)(=O)=O)cc4cccnc34)c2)c2ccc(S(C)(=O)=O)cc2)n1", "unit.text": "nM", "concentration": 27}

QUERY: Consider the compound shown here: O=C(NC1CC1)c1cn(-c2cccc(C#Cc3ccc[n+]([O-])c3)c2)c2ncccc2c1=O [MK-0873] What is its recorded concentration?
RESULT: 258

###

# protocol: Metabolic stability in dog hepatocytes assessed as compound metabolism level
# Format: ADME, cell-based, Canis lupus familiaris, Hepatocyte
# setup.conditions: read-out: Activity
measurement.label: metabolised (%)
Unit % implied. Number only.

QUERY: Consider the molecule shown here: `O=C(NC1CC1)c1cn(-c2cccc(-c3ccc([C@@H]4C[C@H]4C(=O)O)c(F)c3)c2)c2ncccc2c1=O` What is its recorded metabolised?
RESULT: 30

###

# protocol: Metabolic stability in rhesus monkey hepatocytes assessed as compound metabolism level
# Type: ADME, cell-based, Macaca mulatta, Hepatocyte
# setup.conditions: read-out: Activity
measurement.label: metabolised (%)
Unit % implied. Number only.

QUERY: Consider the compound shown here: `O=C(NC1CC1)c1cn(-c2cccc(-c3ccc([C@@H]4C[C@H]4C(=O)O)c(F)c3)c2)c2ncccc2c1=O` What is its recorded metabolised?
RESULT: 10

###

# protocol: Drug level in rat plasma at 0.1 mg/kg, po measured 90 mins post dose
# Type: ADME, organism-based
# Set-up: dose 0.1 mg/kg, route oral
measurement.label: concentration at 1.5 h (nM)
Unit nM implied. Number only.

QUERY: Consider the compound shown here: `O=C(NC1CC1)c1cn(-c2cccc(-c3ccc([C@@H]4C[C@H]4C(=O)[O-])c(F)c3)c2)c2ncccc2c1=O.[Na+]` What is its recorded concentration at 1.5 h?
RESULT: 590

###

Below is a list of entries, each paired with its recorded IC50 value.
# target.or.system: 3',5'-cyclic-AMP phosphodiesterase 4A (Homo sapiens)
# Sequence (P27815 whole entry): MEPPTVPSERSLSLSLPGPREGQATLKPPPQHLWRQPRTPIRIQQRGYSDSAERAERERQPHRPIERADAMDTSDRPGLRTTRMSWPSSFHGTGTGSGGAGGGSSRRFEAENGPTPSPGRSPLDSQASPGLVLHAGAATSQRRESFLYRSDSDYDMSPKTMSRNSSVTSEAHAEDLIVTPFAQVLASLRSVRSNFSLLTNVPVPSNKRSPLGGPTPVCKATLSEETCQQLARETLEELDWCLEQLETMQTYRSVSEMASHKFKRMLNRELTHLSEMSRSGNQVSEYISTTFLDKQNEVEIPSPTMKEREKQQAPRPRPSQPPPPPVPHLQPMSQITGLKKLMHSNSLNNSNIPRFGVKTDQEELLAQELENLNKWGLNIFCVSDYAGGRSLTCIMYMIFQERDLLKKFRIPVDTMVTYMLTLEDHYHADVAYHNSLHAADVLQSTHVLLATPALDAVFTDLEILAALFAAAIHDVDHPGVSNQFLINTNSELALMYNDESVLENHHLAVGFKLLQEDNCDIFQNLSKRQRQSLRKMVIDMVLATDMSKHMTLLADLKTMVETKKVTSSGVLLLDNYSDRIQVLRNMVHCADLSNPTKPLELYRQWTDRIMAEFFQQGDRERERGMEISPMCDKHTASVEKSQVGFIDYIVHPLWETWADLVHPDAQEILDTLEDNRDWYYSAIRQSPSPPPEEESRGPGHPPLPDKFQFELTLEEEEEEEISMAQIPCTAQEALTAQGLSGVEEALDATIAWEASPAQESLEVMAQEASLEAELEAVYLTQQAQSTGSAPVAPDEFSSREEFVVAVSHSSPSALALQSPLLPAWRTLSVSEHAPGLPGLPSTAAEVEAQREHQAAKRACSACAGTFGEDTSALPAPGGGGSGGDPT
# protocol: Inhibition of PDE4A
# setup.conditions: pooled result: one value given for 3 cell lines, strains, targets or settings

Below, each entry is followed by its recorded IC50 result.
{"compound": "O=C(NC1CC1)c1cn(-c2cccc(-c3ccc([C@@H]4C[C@H]4C(=O)O)c(F)c3)c2)c2ncccc2c1=O", "target.or.system": "3',5'-cyclic-AMP phosphodiesterase 4A (Homo sapiens)", "result": "0.53 nM"}
{"compound": "O=C(NC1CC1)c1cn(-c2cccc(-c3ccc(C4CC4C(=O)O)cc3)c2)c2ncccc2c1=O (cis isomer)", "target.or.system": "3',5'-cyclic-AMP phosphodiesterase 4A (Homo sapiens)", "result": "1.6 nM"}
{"compound": "CC(C)(C)NC(=O)c1cn(-c2cccc(-c3ccc(C4CC4C(=O)O)cc3)c2)c2ncccc2c1=O (racemic)", "target.or.system": "3',5'-cyclic-AMP phosphodiesterase 4A (Homo sapiens)", "result": "32 nM"}
{"compound": "O=C(NC1CC1)c1cn(-c2cccc(-c3ccc([C@H]4C[C@@H]4C(=O)O)c(F)c3)c2)c2ncccc2c1=O", "target.or.system": "3',5'-cyclic-AMP phosphodiesterase 4A (Homo sapiens)", "result": "0.46 nM"}
{"compound": "CC(C)(Cc1ccc(-c2cccc(-n3cc(C(=O)NC4CC4)c(=O)c4cccnc43)c2)cc1)C(=O)O", "target.or.system": "3',5'-cyclic-AMP phosphodiesterase 4A (Homo sapiens)", "result": "0.88 nM"}

QUERY: Consider the compound shown here: `CC(C)(CC(=O)O)c1ccc(-c2cccc(-n3cc(C(=O)NC4CC4)c(=O)c4cccnc43)c2)cc1` What is its recorded IC50?
RESULT: 0.85 nM

QUERY: Consider the compound shown here: O=C(NCC(F)(F)F)c1cn(-c2cccc(-c3ccc(C4CC4C(=O)O)cc3)c2)c2ncccc2c1=O (racemic) What is its recorded IC50?
RESULT: 0.51 nM

QUERY: Consider the compound shown here: O=C(NC1CC1)c1cn(-c2cccc(-c3ccc(C4CC4C(=O)O)cc3)c2)c2ncccc2c1=O (racemic) What is its recorded IC50?
RESULT: 0.57 nM

QUERY: Consider the compound shown here: O=C(NC1CC1)c1cn(-c2cccc(-c3ccccc3C3CC3C(=O)O)c2)c2ncccc2c1=O (racemic) What is its recorded IC50?
RESULT: 4.6 nM

QUERY: Consider the compound shown here: CC(C)(c1cc(-c2cccc(-c3ccc(C4CC4C(=O)O)cc3)c2)c2ncccc2c1)S(C)(=O)=O (single isomer, unassigned; enantiomer B) What is its recorded IC50?
RESULT: 0.32 nM

QUERY: Consider the compound shown here: O=C(NC1CCC1)c1cn(-c2cccc(-c3ccc(C4CC4C(=O)O)cc3)c2)c2ncccc2c1=O (racemic) What is its recorded IC50?
RESULT: 0.52 nM

QUERY: Consider the compound shown here: O=C(NCC1CC1)c1cn(-c2cccc(-c3ccc(C4CC4C(=O)O)cc3)c2)c2ncccc2c1=O (racemic) What is its recorded IC50?
RESULT: 0.35 nM

QUERY: Consider the compound shown here: CC1(NC(=O)c2cn(-c3cccc(-c4ccc(C5CC5C(=O)O)cc4)c3)c3ncccc3c2=O)CC1 (racemic) What is its recorded IC50?
RESULT: 0.58 nM

QUERY: Consider the compound shown here: O=C(NC1CC1)c1cn(-c2cccc(-c3cccc(C4CC4C(=O)O)c3)c2)c2ncccc2c1=O (racemic) What is its recorded IC50?
RESULT: 0.54 nM

QUERY: Consider the compound shown here: `O=C(NC1CC1)c1cn(-c2cccc(-c3ccc([C@@H]4C[C@H]4C(=O)O)cc3)c2)c2ncccc2c1=O` What is its recorded IC50?
RESULT: 1 nM

QUERY: Consider the compound shown here: `O=C(NC1CC1)c1cn(-c2cccc(C#Cc3ccc[n+]([O-])c3)c2)c2ncccc2c1=O` What is its recorded IC50?
RESULT: 5.1 nM

QUERY: Consider the compound shown here: CC(C)(c1cc(-c2cccc(-c3ccc(C4CC4C(=O)O)cc3)c2)c2ncccc2c1)S(C)(=O)=O (single isomer, unassigned; enantiomer A) What is its recorded IC50?
RESULT: 0.54 nM
